B1: H2-Kb / Ed21 (parent complex)
chain 1: AQSVTQPDARVTVSEGASLQLRCKYSYFGTPYLFWYVQYPRQGLQLLLKYYPGDPVVQGVNGFEAEFSKSNSSFHLRKASVHWSDWAVYFCAVSMSGGYKVVFGSGTRLLVSP
chain 2: DSGVVQSPRHIIKEKGGRSVLTCIPISGHSNVVWYQQTLGKELKFLIQHYEKVERDKGFLPSRFSVQQFDDYHSEMNMSALELEDSAMYFCASSPRQTDYTFGSGTRLLVI
chain 3: not shown
chain 4: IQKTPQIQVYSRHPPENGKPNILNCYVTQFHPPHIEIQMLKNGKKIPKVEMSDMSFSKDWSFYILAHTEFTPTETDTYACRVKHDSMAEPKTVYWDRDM
chain 5: SIINFEKL

variants of: B1; assay: % of reporter cells activated (NFAT-GFP), raw; also: test concentration or dose not given here
MEASUREMENT TYPE: ratio to parent

Here's what some known entries look like.
chain 5 F5D    0.905
chain 5 I3N    0.961
chain 5 K7E    0.0818

(1) chain 5 L8C
(2) chain 5 E6M
(3) chain 5 E6I
(4) chain 5 N4T
(5) chain 5 K7C
QUERY: Please produce an ascending ranking of these variants based on ratio to parent. Please respond with the labels ordered as the question requires.
RESULT: 3, 4, 5, 2, 1
(3: 0.0493, 4: 0.165, 5: 0.374, 2: 0.593, 1: 0.882)
